target: human GLP-1R (Homo sapiens, UniProt P43220); test: Human GLP-1 Receptor HEK293 cell cAMP assay, 104 fmol/mg GLP-1R expression density; assay type: cell-based; parameters: expressed in transfected cells; host or cells: HEK293 clonal cell line; conditions: HEK293 cell line with 104 fmol/mg expression density of GLP-1R; percent of maximal response to GLP-1(7-36)NH2; arithmetic mean; read-out: Emax % (SEM, n), intracellular cAMP response
Sequence (P43220 24-463): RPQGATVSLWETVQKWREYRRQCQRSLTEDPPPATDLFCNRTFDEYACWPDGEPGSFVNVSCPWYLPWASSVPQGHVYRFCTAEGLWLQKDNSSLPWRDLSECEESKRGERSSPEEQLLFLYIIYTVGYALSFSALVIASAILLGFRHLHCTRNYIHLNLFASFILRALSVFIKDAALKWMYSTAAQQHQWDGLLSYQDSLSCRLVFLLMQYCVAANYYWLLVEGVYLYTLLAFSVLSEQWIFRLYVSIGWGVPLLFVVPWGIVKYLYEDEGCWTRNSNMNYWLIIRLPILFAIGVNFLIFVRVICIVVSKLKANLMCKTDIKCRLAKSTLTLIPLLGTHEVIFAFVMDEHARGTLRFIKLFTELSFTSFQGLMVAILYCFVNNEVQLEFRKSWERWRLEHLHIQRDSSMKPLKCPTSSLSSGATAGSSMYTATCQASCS
param class (str): category from Emax; see ranges low = under 80%, mid = from 80% up to 90%, high = 90% and over

* COc1cc(C(=O)O)cc2c1nc(Cc1cc(C)c3cc1OCCCc1cc(C(F)(F)F)ccc1COc1cccc-3n1)n2C[C@@H]1CCO1 | mid
* COc1cc(C(=O)O)cc2c1nc(Cc1ccc3cc1COCCc1cc(C#N)ccc1COc1ccnc-3n1)n2C[C@@H]1CCO1 | low
* COCCOc1cc(C(=O)O)cc2c1nc(Cc1ccc3cc1COCC(F)(F)c1cc(C#N)ccc1COc1cccc-3n1)n2C[C@@H]1CCO1 | mid
* N#Cc1ccc2cc1CCOCc1cc(ccc1Cc1nc3ccc(C(=O)O)cc3n1C[C@@H]1CCO1)-c1cccc(n1)OC2 | high
* Cn1ncc(-c2ccc3c(c2)CCCOc2cc(ccc2Cc2nc4ccc(C(=O)O)cc4n2C[C@@H]2CCO2)-c2cccc(n2)OC3)n1 | low
* COc1cc(C(=O)O)cc2c1nc(Cc1cc(C)c3cc1OCCCc1cc(C#N)ccc1COc1cccc-3n1)n2C[C@@H]1CCO1 | mid
* COc1cc(C(=O)O)cc2c1nc(Cc1cc(F)c3cc1COCc1cc(C#N)ccc1COc1cccc-3n1)n2C[C@@H]1CCO1 | mid
* COc1cc(C(=O)O)cc2c1nc(Cc1cc(F)c3cc1CCOCc1cc(C#N)ccc1COc1cccc-3n1)n2C[C@@H]1CCO1 | mid
* COCCOc1cc(C(=O)O)cc2c1nc(Cc1cc(F)c3cc1CCOCc1cc(ccc1Cl)COc1cccc-3n1)n2C[C@@H]1CCO1 | high
* N#Cc1ccc2c(c1)COCc1cc(c(F)cc1Cc1nc3ccc(C(=O)O)cc3n1C[C@@H]1CCO1)-c1cccc(n1)OC2 | mid
* N#Cc1ccc2c(c1)OCCc1cc(c(F)cc1Cc1nc3ccc(C(=O)O)cc3n1C[C@@H]1CCO1)-c1cccc(n1)OC2 | low
* CS(=O)(=O)c1ccc(-c2ccc3c(c2)CCCOc2cc(ccc2Cc2nc4ccc(C(=O)O)cc4n2C[C@@H]2CCO2)-c2cccc(n2)OC3)cc1 | mid
* O=C(O)c1ccc2nc(Cc3ccc4cc3OCCCc3cc(Br)ccc3COc3cccc-4n3)n(C[C@@H]3CCO3)c2c1 | high
* COCCOc1cc(C(=O)O)cc2c1nc(Cc1cc(F)c3cc1COCc1cc(C#N)ccc1COc1cccc-3n1)n2C[C@@H]1CCO1 | high

* * *

biological target: human GLP-1R (Homo sapiens, UniProt P43220); test: Human GLP-1 Receptor HEK293 cell cAMP assay, 581 fmol/mg GLP-1R expression density; type: cell-based; set-up: expressed in transfected cells; host or cells: HEK293 clonal cell line; details: HEK293 cell line with 581 fmol/mg expression density of GLP-1R; geometric mean; read-out: EC50 nM (SEM, n), intracellular cAMP response, relative EC50
property: EC50 (nM)

- O=C(O)c1ccc2nc(Cc3ccc4cc3OCCCc3cc(-c5cnn(C6COC6)c5)ccc3COc3cccc-4n3)n(C[C@@H]3CCO3)c2c1 [Example 76]: 102
- N#Cc1ccc2c(c1)CCOc1cc(c(F)cc1Cc1nc3ccc(C(=O)O)cc3n1C[C@@H]1CCO1)-c1cccc(n1)OC2 [Example 20]: 58
- COc1cc(C(=O)O)cc2c1nc(Cc1cc(C)c3cc1OCCCc1cc(C#N)ccc1COc1cccc-3n1)n2C[C@@H]1CCO1 [Example 9]: 1.8
